- Test Target: T1, Peptide 4: Biotin-AGGGGSGGGGSGGGGSAAA-Tyr-acid (N-terminal biotin; C-terminal acid)
- T1 construct: Control peptide without PC
- T1 peptide: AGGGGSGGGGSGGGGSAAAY
- Experiment Summary: scFv ELISA
This listing pairs binders with measured OD450.
The reply must contain the numeric value and, after it, the unit.

>  <Binder>
PcOxP_DB03_A04 (scFv, V domains shown, scFv in periplasmic extract) VH: EVQLLESGGGLVQPGGSLRLSCAASGDTFSDFYMEWVRQAPGKGLEWVAASRNKANDYSTEYADSVKGRFTISRDNSKNTLYLQMNSLRAEDTAVYYCARDYYGSSYWYFDVWGQGTLVTVSS VL: DIVMTQSPDSLAVSLGERATINCEASESLYSSKHKVHYLAWYQQKPGQPPKLLIYGASNRYIGVPDRFSGSGSGTDFTLTISSLQAEDVAVYYCAQFYSYPLTFGGGTKVEIK

>  <OD450>
0.04 OD450

$$$$
>  <Binder>
PcOxP_DB04_D07 (scFv, V domains shown, scFv in periplasmic extract) VH: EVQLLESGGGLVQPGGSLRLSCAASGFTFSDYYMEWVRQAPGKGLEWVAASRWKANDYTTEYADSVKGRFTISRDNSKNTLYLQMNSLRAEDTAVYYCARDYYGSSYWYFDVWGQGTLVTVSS VL: DIVMTQSPDSLAVSLGERATINCTASESLYSSKHKVHYLAWYQQKPGQPPKLLIYGASNRYIGVPDRFSGSGSGTDFTLTISSLQAEDVAVYYCAQFYTYPLTFGGGTKVEIK

>  <OD450>
0.05 OD450

$$$$
>  <Binder>
PcOxP_DB03_B07 (scFv, V domains shown, scFv in periplasmic extract) VH: EVQLLESGGGLVQPGGSLRLSCAASGFGFSDFYMEWVRQAPGKGLEWVAASRNKANDYTTEYADSVKGRFTISRDNSKNTLYLQMNSLRAEDTAVYYCARDYYSSSYWYFDVWGQGTLVTVSS VL: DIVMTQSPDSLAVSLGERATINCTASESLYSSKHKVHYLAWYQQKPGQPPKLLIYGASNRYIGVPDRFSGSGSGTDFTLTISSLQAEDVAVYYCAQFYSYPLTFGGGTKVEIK

>  <OD450>
0.06 OD450

$$$$
>  <Binder>
PcOxP_DB03_C08 (scFv, V domains shown, scFv in periplasmic extract) VH: EVQLLESGGGLVQPGGSLRLSCAASGSTFSDFYMEWVRQAPGKGLEWVAASRNKANDFTTEYADSVKGRFTISRDNSKNTLYLQMNSLRAEDTAVYYCARDYYGSSYWYFDVWGQGTLVTVSS VL: DIVMTQSPDSLAVSLGERATINCTASESLYSSKHKVHYLAWYQQKPGQPPKLLIYGASNRYSGVPDRFSGSGSGTDFTLTISSLQAEDVAVYYCAQFYHYPLTFGGGTKVEIK

>  <OD450>
0.05 OD450

$$$$

Challenge: Provide measured OD450 value, entry: PcOxP_DB04_A05 (scFv, V domains shown, scFv in periplasmic extract) VH: EVQLLESGGGLVQPGGSLRLSCAASGFTFSDFYIEWVRQAPGKGLEWVAASRNKANDYTTEYADSVKGRFTISRDNSKNTLYLQMNSLRAEDTAVYYCARDYYGSSYWYFDVWGQGTLVTVSS VL: DIVMTQSPDSLAVSLGERATINCTASESLYSSKHKVHYLAWYQQKPGQPPKLLIYGASNREIGVPDRFSGSGSGTDFTLTISSLQAEDVAVYYCAQFYSYPLTFGGGTKVEIK
Response given: 0.04 OD450
